Tested on: SF-539 CNS
Assay: NCI-60 one-dose screen, 48 h
Conditions: 10 µM unless noted
The panel holds about 83,000 compounds, 20% with a hit somewhere; the sample as a whole holds those more often. The source made the active and inactive calls. How the source made its calls: active means growth percent below 10; inactive means the rest.
Would you mind answering with one of these outcomes? active, inactive

These recorded examples may help you get a feel for the data.
- compound: "COc1cccc(NC(=O)c2sc3nc(C)c(C(C)=O)cc3c2N)c1"
  cat: "inactive"
- compound: "C=C(C)[C@@H]1CC[C@]2(C(=O)OC)CC[C@]3(C)[C@H](CC[C@@H]4[C@@]5(C)C/C(=C/c6cccc(I)c6)C(=O)C(C)(C)[C@@H]5CC[C@]43C)[C@@H]12"
  cat: "inactive"
- compound: "COc1cc2c(cc1-c1c(C)noc1C)ncc1nc(C3CCCC3)n([C@H](C)COC(F)F)c12"
  cat: "inactive"
- compound: "O=S(=O)(Nc1ccc(NS(=O)(=O)c2ccccc2)c(Cl)c1)c1ccccc1"
  cat: "inactive"
- compound: "O=C(N(c1ccccc1)c1ccccc1)n1ccc2nc(Cl)nc(Cl)c21"
  cat: "inactive"

Next, consider the following compound.
Given `O=C(/C=C/c1ccc(C(F)(F)F)cc1)Nc1ccc(C=C2c3ccccc3C(=O)c3ccccc32)cc1` , state the outcome it received in this test. inactive

---

Test system: IGROV1 ovarian
Test: NCI-60 one-dose screen, 48 h
Conditions: 10 µM unless noted
About 83,000 compounds went through this panel and 20% of them were active in at least one assay; those are over-represented in the sample as a whole. The source made the active and inactive calls. How the source made its calls: active means growth percent below 10; inactive means the rest.
Would you mind answering with one of these outcomes? active, inactive

These recorded examples may help you get a feel for the data.
- molecule: "C=CC(=O)Nc1cccc(-c2nc(SC)nc(NCc3ccccc3)c2C#N)c1"
  testedOn: "IGROV1 ovarian"
  cat: "inactive"
- molecule: "CCCCCCN(CCCCCC)CCC(O)c1ccc2ccccc2c1 (centres undefined)"
  testedOn: "IGROV1 ovarian"
  cat: "inactive"
- molecule: "C=CC(=O)Nc1cccc(-c2nc(SC)nc(Nc3cccc(OC)c3)c2C#N)c1"
  testedOn: "IGROV1 ovarian"
  cat: "inactive"

Given `Cn1c(NCCc2ccc(O)c(O)c2)nc2c1c(=O)n(Cc1ccc(Cl)c(Cl)c1)c(=O)n2C` , state the outcome it received in this test. inactive

Given `CNc1ccc(-c2cc(=O)oc3ccc(Cl)cc23)cc1` , state the outcome it received in this test. inactive

Given `FC(F)(F)c1[nH]ncc1-c1nc2ccc3n[nH]c(C#Cc4cccnc4)c3c2c2c1CCCC2` , state the outcome it received in this test. inactive

Given `CCOC(=O)c1sc(Nc2ccc(Cl)cc2)nc1C` , state the outcome it received in this test. inactive

Given CC[C@@H](C(=O)[C@@H](C)[C@@H](O)[C@H](C)[C@@H]1O[C@@H]([C@@H](CC)C(=O)O)CC[C@@H]1C)[C@H]1OC2(C=C[C@@H](O)[C@]3(CC[C@@](C)([C@H]4CC[C@](O)(CC)[C@H](C)O4)O3)O2)[C@H](C)C[C@@H]1C (some centres undefined) , state the outcome it received in this test. inactive

Given `COc1cc2nc(N3CCCC3)nc(NCc3ccccc3)c2cc1OC` , state the outcome it received in this test. inactive

Given `Nc1nc2ncc(CCNc3ccc(C(=O)O)cc3)nc2c(=O)[nH]1` , state the outcome it received in this test. inactive

Given `CN1CCN(c2ccc3nc(-c4ccc(OCCCCN5CCN(CCCCN6C(=O)c7cccc8cccc(c78)C6=O)CC5)cc4)[nH]c3c2)CC1` , state the outcome it received in this test. inactive

Given CCc1nc(N)nc(N)c1C#CC(C)c1ccc(-c2ccncc2)cc1Cl (centres undefined) , state the outcome it received in this test. inactive

Given `O=C(CCN1C(=O)/C(=C/c2ccc(Cl)cc2)SC1=S)NCCCN1CCOCC1` , state the outcome it received in this test. inactive

Given COc1ccc(C2CC(c3ccc4ccccc4c3)=NN2/C=C2\SC(=S)N(NC(=O)Cc3ccccc3Nc3c(Cl)cccc3Cl)C2=O)cc1 (centres undefined) , state the outcome it received in this test. inactive

Given `CCCc1cc(=O)n2c(C(=O)Nc3ccc(F)cc3)c(C(=O)Nc3ccc(F)cc3)sc2n1` , state the outcome it received in this test. inactive

Given `COc1cc(/C=C/C(=O)Nc2cccnc2Nc2ccc(F)cc2)cc(OC)c1OC` , state the outcome it received in this test. inactive

Given `COc1cc(Nc2cc(C)nc(N3CCN(c4ccnc5cc(Cl)ccc45)CC3)n2)cc(OC)c1` , state the outcome it received in this test. active

Given Cc1ccc(C(SCC(N)C(=O)O)(c2ccccc2)c2ccc(C)cc2)cc1 (centres undefined) , state the outcome it received in this test. active

Given `COc1cc2nc(N3CCCC3)nc(Nc3ccccc3)c2cc1OC` , state the outcome it received in this test. inactive
